Tested on: MV-4-11 cells
Assay: Cell viability in MV-4-11 cells (CellTiter Glo2)
Format: cell-based
Conditions: Homo sapiens, MV4-11, 96 h, 8-point dose response, 4 days, CellTiter Glo2 (Table E1), read-out: MV-4-11 IC50
Reported IC50 values for the following compounds.

CCC(=O)Nc1ccc(-c2ccc(C(=O)NCc3cccnc3)cn2)cc1	> 30 µM
CCC(=O)N(C)c1ccc(-c2ccc(C(=O)NCc3ccc(F)nc3)cn2)cc1	> 30 µM

Kindly review the next compound as well.
Checklist item: IC50 tested on MV-4-11 cells, entry CCC(=O)N(CC(C)C)c1ccc(-c2ccc(C(=O)NCc3cccnc3)cn2)cc1 , value?
< 0.0117 µM
